From: patent US11655252B2

target-under-test: UniProt:P23458
Sequence (P23458 875-1153): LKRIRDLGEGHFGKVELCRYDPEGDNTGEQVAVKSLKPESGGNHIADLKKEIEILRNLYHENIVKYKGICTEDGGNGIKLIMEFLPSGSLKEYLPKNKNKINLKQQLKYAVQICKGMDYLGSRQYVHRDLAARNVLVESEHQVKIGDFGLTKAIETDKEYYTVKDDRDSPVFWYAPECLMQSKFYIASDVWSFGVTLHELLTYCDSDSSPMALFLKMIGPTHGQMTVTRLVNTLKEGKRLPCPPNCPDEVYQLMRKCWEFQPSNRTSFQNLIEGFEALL
experiment-description: JAK Family Caliper Enzyme Assay (JAK1)
Format: biochemical
experimental-conditions: recombinant human kinase domain, 1 mM ATP
metric-name: IC50 (nM)
Provide only the numeric value, understood in nM.

As a guide, the following entries are already answered.
1. CCCn1cc(Nc2nccc(N3C[C@H]4CC[C@@H](C3)N4C(=O)[C@@H]3CC3(F)F)n2)cn1    33
2. O=C([C@@H]1CC1(F)F)N1[C@@H]2CC[C@H]1CN(c1ccnc(Nc3cnn(CCCO)c3)n1)C2    47
3. C[C@H](O)Cn1cc(Nc2nccc(N3C[C@H]4CC[C@@H](C3)N4C(=O)[C@@H]3CC3(F)F)n2)cn1    44

Now look at this entry.
For the compound C[C@@H](O)Cn1cc(Nc2nccc(N3C[C@H]4CC[C@@H](C3)N4C(=O)[C@@H]3CC3(F)F)n2)cn1 , report IC50.
59
